biological target: human LXRβ (Homo sapiens); construct: expressed in transfected cells; host or cells: HEK293 cells (ATCC CRL-1573), transient transfection with pFA-hLXRβ/GAL4 and pUAS; experiment: Assay for Transcriptional Activity of LXRβ (GAL4-hLXRβ LBD luciferase reporter, transient transfection); assay type: cell-based; details: fold value in comparison with the control (DMSO-treated group); HEK293 cells transfected with pFA-hLXRβ/GAL4 and pUAS; 24 hours
Assay Endpoint: Emax (fold)

Example cases with answers are listed next.
Compound: CS(=O)(=O)c1ccc(-c2ccc(C3CC(C(O)(C(F)(F)F)C(F)(F)F)=NN3c3ccc(F)cc3F)cc2)nc1 (stereo not shown)
Emax [fold]: 26
//
Compound: CN(CCO)S(=O)(=O)c1ccc(-c2ccc(C3CC(C(O)(C(F)(F)F)C(F)(F)F)=NN3c3ccc(F)cc3F)cc2)cc1 (stereo not shown)
Emax [fold]: 35

I: CN(CCO)S(=O)(=O)c1cccc(-c2cccc(N3N=C(C(F)(F)C(F)(F)F)CC3c3ccc(F)cc3F)c2)c1 (stereo not shown)
II: CS(=O)(=O)N1CC=C(c2ccc(C3CC(C(O)(C(F)(F)F)C(F)(F)F)=NN3c3ccccc3Cl)s2)CC1 (stereo not shown)
**Query** Input pair: I , II . Output: entry with lower Emax. Give the label of your selection.
**Result** I
(I: 25 fold, II: 106 fold)

---

target: human LXRβ (Homo sapiens); construct: expressed in transfected cells; host or cells: HEK293 cells (ATCC CRL-1573), transient transfection with pFA-hLXRβ/GAL4 and pUAS; experiment: Assay for Transcriptional Activity of LXRβ (GAL4-hLXRβ LBD luciferase reporter, transient transfection); assay type: cell-based; conditions: increase of transcriptional activity of LXRβ; HEK293 cells transfected with pFA-hLXRβ/GAL4 and pUAS; 24 hours; average of three independent tests
pEC50: −log10 of the molar value.
Assay Endpoint: pEC50

Reference set, count: 2
Compound: OC(C1=NN(c2ccccc2Cl)C(c2ccc(-c3ccc(F)cc3)nc2)C1)(C(F)(F)F)C(F)(F)F (stereo not shown) [Example 353]
Test System: human LXRβ (Homo sapiens)
pEC50: 6.33

Compound: O=C(O)C(F)(F)F.OC(C1=NN(c2ccccc2Cl)C(c2cccc(C3=CCNCC3)c2)C1)(C(F)(F)F)C(F)(F)F (stereo not shown) [Example 230, trifluoroacetate]
Test System: human LXRβ (Homo sapiens)
pEC50: 7.44

A: Cc1ccncc1-c1ccc(C2CC(C(O)(C(F)(F)F)C(F)(F)F)=NN2c2ccccc2Cl)cc1 (stereo not shown) [Example 271]
B: CC(=O)N1CC=C(c2cccc(C3CC(C(O)(C(F)(F)F)C(F)(F)F)=NN3c3ccccc3Cl)c2)CC1 (stereo not shown) [Example 231]
**Query** # min-compare on pEC50 between A and B Give the label of your selection.
**Result** A

---

target: human LXRβ (Homo sapiens); test: Assay for Transcriptional Activity of LXRβ (GAL4-hLXRβ LBD luciferase reporter, transient transfection); details: increase of transcriptional activity of LXRβ; HEK293 cells transfected with pFA-hLXRβ/GAL4 and pUAS; 24 hours; average of three independent tests
pEC50: −log10 of the molar value.
Assay Endpoint: pEC50

Some solved cases for reference:
Compound: Cc1ncccc1-c1ccc(C2CC(C(O)(C(F)(F)F)C(F)(F)F)=NN2c2ccc(F)cc2F)cc1 (centres unmarked)
pEC50: 6.49
--
Compound: CCOc1cccc(-c2ccc(C3CC(C(O)(C(F)(F)F)C(F)(F)F)=NN3c3ccc(F)cc3F)cc2)c1 (centres unmarked)
pEC50: 5.97
--
Compound: CC(C)(C)OC(=O)N1CC=C(c2cccc(N3N=C(C(O)(C(F)(F)F)C(F)(F)F)CC3c3ccccc3Cl)c2)CC1 (centres unmarked)
pEC50: 5.18
--
Compound: CC(C)(O)C(=O)N1CCN(c2ccc(C3CC(C(O)(C(F)(F)F)C(F)(F)F)=NN3c3ccccc3Cl)cc2)CC1 (centres unmarked)
pEC50: 5.78
--
Compound: CS(=O)(=O)N1CCN(c2ccc(C3CC(C(O)(C(F)(F)F)C(F)(F)F)=NN3c3ccc(F)cc3F)cc2)CC1 (centres unmarked)
pEC50: 6.02
--
Compound: CSc1ccc(-c2ccc(C3CC(C(O)(C(F)(F)F)C(F)(F)F)=NN3c3ccccc3Cl)cc2)cc1 (centres unmarked)
pEC50: 6.21

1: COc1ccc(-c2ccc(C3CC(C(O)(C(F)(F)F)C(F)(F)F)=NN3c3ccccc3Cl)cc2)cn1 (centres unmarked)
2: CSc1ccc(-c2cccc(C3CC(C(F)(F)C(F)(F)F)=NN3c3ccc(Cl)cc3F)c2)cc1 (centres unmarked)
**Query** Between 1 and 2 , whose recorded pEC50 is greater? Return value: the label identifying the chosen record.
**Result** 1
(1: 5.73, 2: 5.25)

a: CSc1ccc(-c2ccc(C3CC(C(O)(C(F)(F)F)C(F)(F)F)=NN3c3ccccc3Cl)cc2)cn1 (centres unmarked)
b: CS(=O)(=O)c1cc(F)c(-c2cccc(C3CC(C(F)(F)C(F)(F)F)=NN3c3ccc(F)cc3F)c2)cc1F (centres unmarked)
**Query** // returns a or b , whichever has the lower pEC50 # respond with the chosen item's label
**Result** a

P: O=S(=O)(C1CC1)N1CC=C(c2cccc(N3N=C(C(O)(C(F)(F)F)C(F)(F)F)CC3c3ccccc3Cl)c2)CC1 (centres unmarked)
Q: CS(=O)(=O)c1ccc(-c2cccc(C3CC(C(F)(F)C(F)(F)F)=NN3c3ccc(F)cc3F)c2)cc1C(F)(F)F (centres unmarked)
R: CS(=O)(=O)c1ccc(-c2cc(C3CC(C(F)(F)C(F)(F)F)=NN3c3ccc(F)cc3F)ccc2F)cc1 (centres unmarked)
**Query** List from greatest to least pEC50. Order the labels as requested and list them.
**Result** Q, P, R

---

Target: human LXRβ (Homo sapiens, UniProt P55055)
Construct: expressed in transfected cells; host or cells: HEK293 cells (ATCC CRL-1573), transient transfection with pFA-hLXRβ/GAL4 and pUAS
Sequence (P55055 222-460 limits assumed): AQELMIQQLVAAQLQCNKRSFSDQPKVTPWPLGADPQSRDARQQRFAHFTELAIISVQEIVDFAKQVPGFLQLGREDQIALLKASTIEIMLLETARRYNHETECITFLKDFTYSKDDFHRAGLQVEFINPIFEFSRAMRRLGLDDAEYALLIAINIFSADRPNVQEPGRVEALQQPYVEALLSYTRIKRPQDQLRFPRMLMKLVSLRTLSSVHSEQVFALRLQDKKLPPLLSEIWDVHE
Assay: Assay for Transcriptional Activity of LXRβ (GAL4-hLXRβ LBD luciferase reporter, transient transfection)
Format: cell-based
Conditions: fold value in comparison with the control (DMSO-treated group); HEK293 cells transfected with pFA-hLXRβ/GAL4 and pUAS; 24 hours
Assay Endpoint: Emax (fold)

Examples from the recorded data:
Compound: OC(C1=NN(c2ccccc2Cl)C(c2ccc(-c3ccc(F)c(Cl)c3)cc2)C1)(C(F)(F)F)C(F)(F)F (centres unmarked)
Test System: human LXRβ (Homo sapiens, UniProt P55055)
Emax [fold]: 51

Compound: CN(C)c1ccc(-c2ccc(C3CC(C(O)(C(F)(F)F)C(F)(F)F)=NN3c3ccccc3Cl)cc2)cc1 (centres unmarked)
Test System: human LXRβ (Homo sapiens, UniProt P55055)
Emax [fold]: 50

Compound: O=S(=O)(C1CC1)N1CCN(c2cccc(C3CC(C(F)(F)C(F)(F)F)=NN3c3ccc(F)cc3F)c2)CC1 (centres unmarked)
Test System: human LXRβ (Homo sapiens, UniProt P55055)
Emax [fold]: 69

Compound: CN(C)S(=O)(=O)N1CC=C(c2ccc(C3CC(C(O)(C(F)(F)F)C(F)(F)F)=NN3c3ccc(F)cc3F)cc2)CC1 (centres unmarked)
Test System: human LXRβ (Homo sapiens, UniProt P55055)
Emax [fold]: 45

Compound: O=S(=O)(C1CCCC1)N1CC=C(c2ccc(C3CC(C(O)(C(F)(F)F)C(F)(F)F)=NN3c3ccccc3Cl)cc2)CC1 (centres unmarked)
Test System: human LXRβ (Homo sapiens, UniProt P55055)
Emax [fold]: 59

Compound: CNCCCS(=O)(=O)c1cccc(-c2cccc(C3CC(C(F)(F)C(F)(F)F)=NN3c3ccc(F)cc3F)c2)c1 (centres unmarked)
Test System: human LXRβ (Homo sapiens, UniProt P55055)
Emax [fold]: 106

Compound: Cc1cc(-n2cnnn2)ncc1-c1ccc(C2CC(C(O)(C(F)(F)F)C(F)(F)F)=NN2c2ccc(F)cc2F)cc1 (centres unmarked)
Test System: human LXRβ (Homo sapiens, UniProt P55055)
Emax [fold]: 50

1: Nc1cccc(-c2ccc(C3CC(C(O)(C(F)(F)F)C(F)(F)F)=NN3c3ccccc3Cl)cc2)c1 (centres unmarked)
2: O=S(=O)(C1CC1)N1CC=C(c2cccc(N3N=C(C(O)(C(F)(F)F)C(F)(F)F)CC3c3ccccc3Cl)c2)CC1 (centres unmarked)
3: CSc1ccc(-c2ccc(F)c(C3CC(C(F)(F)C(F)(F)F)=NN3c3ccc(F)cc3F)c2)cn1 (centres unmarked)
4: OC(C1=NN(c2ccccc2Cl)C(c2ccc(-c3ccc(F)nc3)cc2)C1)(C(F)(F)F)C(F)(F)F (centres unmarked)
**Query** Number of compounds to sort: 4. Sort criterion: Emax, ascending. Return value: ordered labels per request.
**Result** 2, 1, 4, 3
